Recorded measurements of pIC50, one per entry
target: human complement factor D (Homo sapiens); construct: purchased R&D Systems 1824-SE; experiment: In vitro enzyme inhibition of human complement factor D (Z-Lys-SBzl/DTNB, A405); type: biochemical; conditions: biochemical assay, substrate Z-Lys-SBzl; read-out: CFD IC50
Sequence (P00746 26-253): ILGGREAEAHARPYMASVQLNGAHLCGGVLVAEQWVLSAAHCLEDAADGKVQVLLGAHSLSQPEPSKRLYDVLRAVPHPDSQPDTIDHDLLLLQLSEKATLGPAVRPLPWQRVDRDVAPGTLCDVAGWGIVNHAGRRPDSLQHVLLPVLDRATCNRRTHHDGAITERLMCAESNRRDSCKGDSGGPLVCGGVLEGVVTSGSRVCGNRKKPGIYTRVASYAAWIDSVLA
pIC50: −log10 of the molar value.

MOLECULE	pIC50
NC(=O)c1nc(NC(=O)N(CC(=O)NCc2cccc(Cl)c2F)C2CC2)n2ccccc12 [Example 140]	6.00 to 7.00
COCC(C)N(CC(=O)NCc1cccc(Cl)c1F)C(=O)Cn1nc(C(N)=O)c2ccccc21 (stereo not shown) [Example 68]	6.00 to 7.00
NC(=O)c1nn(CC(=O)N(CC(=O)NCc2cccc(Cl)c2Cl)C2CC2)c2ccccc12 [Example 106]	6.00 to 7.00
NC(=O)c1nn(CC(=O)N(CC(=O)NCc2cccc(Cl)c2F)Cc2ccncc2)c2ccccc12 [Example 32]	5.00 to 6.00
NCCN(CC(=O)Nc1cccc(Cl)n1)C(=O)Cc1nn(C(N)=O)c2ccccc12 [Example 18]	5.00 to 6.00
NC(=O)n1nc(CC(=O)N(CC(=O)Nc2cccc(Cl)n2)C2CCC2)c2ccccc21 [Example 20]	6.00 to 7.00
COc1cccc(CNC(=O)CN(C(=O)Cn2nc(C(N)=O)c3ccccc32)C2CC2)c1F [Example 122]	5.00 to 6.00
NC(=O)n1cc(CC(=O)N(CC(=O)NCc2cccc(Cl)c2F)C2CC2)c2ccccc21 [Example 41]	6.00 to 7.00
N#Cc1cccc2c(C(N)=O)nn(CC(=O)N(CC(=O)NCc3cccc(Cl)c3F)C3CC3)c12 [Example 105]	5.00 to 6.00
Cc1ccc(CNC(=O)CN(C(=O)Cn2nc(C(N)=O)c3ccccc32)C2CC2)cc1Cl [Example 113]	5.00 to 6.00
NC(=O)c1nn(CC(=O)N(CC(=O)NCc2cccc(Cl)c2F)C2CC2)c2ccc(C(F)(F)F)cc12 [Example 95]	5.00 to 6.00
NC(=O)c1nn(CC(=O)N(CC(=O)NCc2cccc(Cl)c2F)Cc2cccnc2)c2ccccc12 [Example 35]	5.00 to 6.00
NC(=O)c1nn(CC(=O)N(CC(=O)NCc2cccc(Cl)c2C2CC2)C2CC2)c2ccccc12 [Example 131]	< 5.00
CC(CF)N(CC(=O)NCc1cccc(Cl)c1F)C(=O)Cn1nc(C(N)=O)c2ccccc21 (stereo not shown) [Example 66]	6.00 to 7.00
NCc1cc(Cl)c(F)c(CNC(=O)CN(C(=O)Cn2nc(C(N)=O)c3ccccc32)C2CC2)c1 [Example 101]	5.00 to 6.00
NC(=O)c1nn(CC(=O)N(CC(=O)NCc2cccc(Cl)c2F)c2ccccc2)c2ccccc12 [Example 36]	5.00 to 6.00

Recorded values, source patent US20190292155A1.
